Tested on: 786-0 renal
EXPERIMENTAL DETAILS: NCI tumour cell line growth inhibition, 48 h; in the data active = GI50 below about 0.43 µM; inactive = the rest
Pick one: active, inactive

Example results:
| COMPOUND | TARGET | CAT |
| --- | --- | --- |
| COc1cc2c3c(n(CCCNC(C)(C)CO)c(=O)c2cc1OC)-c1cc2c(cc1C3=O)OCO2 | 786-0 renal | active |
| COc1ncnn2ccc(-c3cnc4nc(C)n(Cc5nnc(C(C)F)o5)c4c3)c12 (configuration not stated) | 786-0 renal | active |

Query: Please share the test call associated with O=C(NCCNc1nccc(-c2c(-c3ccc(F)cc3)nc3sccn23)n1)Nc1cccc(C(F)(F)F)c1 .
Result: inactive

Query: Hello, I am checking results. What call was entered for N#CC1(C#N)C2C=CC(C3CC=CC32)C1(C#N)C#N (configuration not stated) ?
Result: inactive

Query: For CO[C@@H]1[C@H](N(C)C(=O)c2ccccc2)C[C@@H]2O[C@]1(C)n1c3ccccc3c3c4c(c5c6ccccc6n2c5c31)C(=O)NC4=O , what call appears in the results of this test?
Result: inactive

Query: Answer briefly: the call reported for Cc1cc(S(=O)(=O)Nc2n[nH]c(-c3ccc(Cl)cc3)c2C#N)c(S)cc1Cl in this assay.
Result: inactive

Query: So what was the verdict on O=C(/C=C/c1cccnc1)c1ccccc1 in this test?
Result: inactive
